Provenance of the data: paper PMC11855827

# Tested on: C. elegans
# run-description: microbe, parasite or virus in culture
# stated-conditions: Caenorhabditis elegans, 0 h, read-out: Percentage of motility inhibition 0 h, Table S2, C. elegans SS assay, 110 μM, 0 h, averages of 4 data points

compound: CC(C)(C)OC(=O)N[C@H]1CCCCC/C=C\[C@@H]2C[C@@]2(C(=O)NS(=O)(=O)C2CC2)NC(=O)[C@@H]2C[C@@H](OC(=O)N3Cc4cccc(F)c4C3)CN2C1=O
test-target: C. elegans
inhibition at 110 µM: 60%

compound: C[C@@H]1O[C@@H](O[C@H]2[C@H](O[C@H]3CC[C@]4(C)[C@H]5CC=C6[C@@H]7CC(C)(C)CC[C@]7(C(=O)O[C@@H]7O[C@H](CO[C@@H]8O[C@H](CO)[C@@H](O[C@@H]9O[C@@H](C)[C@H](O)[C@@H](O)[C@H]9O)[C@H](O)[C@H]8O)[C@@H](O)[C@H](O)[C@H]7O)CC[C@@]6(C)[C@]5(C)CC[C@H]4C3(C)C)OC[C@H](O)[C@@H]2O)[C@H](O)[C@H](O)[C@H]1O
test-target: C. elegans
inhibition at 110 µM: 11%

compound: O=c1cc(-c2ccc(O)c(O)c2)oc2cc(O)cc(O)c12
test-target: C. elegans
inhibition at 110 µM: 4%

compound: COC(=O)C1=CO[C@@H](O[C@@H]2O[C@H](CO)[C@@H](O)[C@H](O)[C@H]2O)[C@@H]2C(CO)=CC[C@H]12 [Geniposide]
test-target: C. elegans
inhibition at 110 µM: 0%

compound: CN1CCN(c2c(F)cc3c(=O)c(C(=O)O)cn4c3c2OCN4C)CC1
test-target: C. elegans
inhibition at 110 µM: 23%

* * *

# System: C. elegans
# run-description: microbe, parasite or virus in culture
# stated-conditions: Caenorhabditis elegans, 0 h, read-out: Percentage of motility inhibition 0 h
Form field: inhibition at 110 µM (one value per entry).

molecule: O=c1cc(-c2ccc(O)cc2)oc2cc(O)c(O)c(O)c12
units-symbol: %
inhibition at 110 µM: 49
--
molecule: C=CC(C)(O)CCC=C(C)C (centres unmarked)
units-symbol: %
inhibition at 110 µM: 14
--
molecule: COc1c(O)cc2occ(-c3ccc(O)cc3)c(=O)c2c1O
units-symbol: %
inhibition at 110 µM: 0
--
molecule: O=c1[nH]c(=O)n([C@H]2C[C@H](O)[C@@H](CO)O2)cc1/C=C/Br
units-symbol: %
inhibition at 110 µM: 6
--
molecule: COc1ccc(-c2oc3c(CC=C(C)C)c(O[C@@H]4O[C@H](CO)[C@@H](O)[C@H](O)[C@H]4O)cc(O)c3c(=O)c2O[C@@H]2O[C@@H](C)[C@H](O)[C@@H](O)[C@H]2O)cc1
units-symbol: %
inhibition at 110 µM: 30
--
molecule: COc1cc2c(c(OC)c1OC)-c1ccc(OC)c(=O)cc1[C@@H](NC(C)=O)CC2
units-symbol: %
inhibition at 110 µM: 0
--
molecule: O=c1c(O)c(-c2ccc(O)c(O)c2)oc2cc(O)c(O)c(O)c12
units-symbol: %
inhibition at 110 µM: 15
--
molecule: C[C@H](C[C@H](O)[C@H]1OC1(C)C)C1=C2C[C@H](O)[C@H]3[C@@]4(C)CCC(=O)C(C)(C)[C@@H]4CC[C@]3(C)[C@@]2(C)CC1
units-symbol: %
inhibition at 110 µM: 3

* * *

Form field: Percentage of motility inhibition 0 h (one value per entry).
# Test system: C. elegans
# stated-conditions: Table S2, C. elegans SS assay, 110 μM, 0 h, averages of 4 data points

compound: O.O=C(O)CC(O)(CC(=O)O)C(=O)O [Citric acid (monohydrate)]
Percentage of motility inhibition 0 h: 63%
--
compound: COc1ccc(-c2cc(=O)c3c(OC)cc(OC)c(OC)c3o2)cc1
Percentage of motility inhibition 0 h: 31%
--
compound: CN1[C@@H]2CC[C@H]1CC(OC(=O)[C@H](CO)c1ccccc1)C2.CN1[C@@H]2CC[C@H]1CC(OC(=O)[C@H](CO)c1ccccc1)C2.O=S(=O)(O)O (stereo partly drawn) [L-Hyoscyamine (sulfate)]
Percentage of motility inhibition 0 h: 1%
--
compound: COC[C@@]12CC[C@H](OC)[C@]34C([C@H]([C@H](OC)[C@H]13)[C@]1(O)[C@H]3[C@@H](OC(=O)c5ccccc5)[C@](O)(C[C@H]34)[C@@H](OC)[C@@H]1O)N(C)C2
Percentage of motility inhibition 0 h: 5%
--
compound: CC(=O)O[C@H]([C@@H](O)C[C@@H](C)C1=C2C[C@H](O)[C@H]3[C@@]4(C)CCC(=O)C(C)(C)[C@@H]4CC[C@]3(C)[C@@]2(C)CC1)C(C)(C)O [Alisol A 24-acetate]
Percentage of motility inhibition 0 h: 3%
--
compound: Cc1c(N(C)CS(=O)(=O)[O-])c(=O)n(-c2ccccc2)n1C.[Na+] [Metamizole (sodium)]
Percentage of motility inhibition 0 h: 17%
--
compound: CC(C)=CCC[C@](C)(O)[C@@H]1CC=C(C)CC1 [Levomenol]
Percentage of motility inhibition 0 h: 37%
--
compound: CC(Cc1ccc(O)c(O)c1)C(C)Cc1ccc(O)c(O)c1 (stereo not shown) [Nordihydroguaiaretic acid]
Percentage of motility inhibition 0 h: 8%
--
compound: Cc1onc(-c2ccccc2Cl)c1C(=O)N[C@@H]1C(=O)N2[C@@H]1SC(C)(C)[C@@H]2C(=O)[O-].O.[Na+] [Cloxacillin (sodium monohydrate)]
Percentage of motility inhibition 0 h: 14%
--
compound: CC(C)(O)CCc1c(O)cc(O)c2c(=O)c(O)c(-c3ccc(O)cc3)oc12
Percentage of motility inhibition 0 h: 42%
--
compound: O=c1cc(-c2ccc(O)cc2)oc2cc(O)ccc12 [7,4'‐Dihydroxyflavone]
Percentage of motility inhibition 0 h: 5%
--
compound: CC(=O)OC(C)(C)CCC(=O)[C@](C)(O)[C@H]1[C@H](O)C[C@@]2(C)[C@@H]3CC=C4[C@@H](C[C@H](O)[C@@H](O)C4(C)C)[C@]3(C)C(=O)C[C@]12C
Percentage of motility inhibition 0 h: 0%
--
compound: C=C1CC[C@H]2[C@@H](/C=C(\C)C(=O)[C@@]3(O)C[C@H](C)[C@H](O)[C@@H]3[C@@H]1O)C2(C)C
Percentage of motility inhibition 0 h: 1%

* * *

Form field: inhibition at 110 µM (one value per entry).
# Tested on: C. elegans
# run-description: microbe, parasite or virus in culture
# stated-conditions: Caenorhabditis elegans, 24 h, read-out: Percentage of motility inhibition 24 h, Table S2, C. elegans SS assay, 110 μM, 24 h, averages of 4 data points

compound: O=c1cc(-c2ccc(O)c(-c3c(O)cc(O)c4c(=O)cc(-c5ccc(O)cc5)oc34)c2)oc2cc(O)cc(O)c12 [Amentoflavone]
inhibition at 110 µM [%]: 0
//
compound: C[C@@]12C[C@@]3(O)O[C@@H](O1)[C@]1(COC(=O)c4ccc(O)cc4)[C@@H]3C[C@]12O[C@@H]1O[C@H](COC(=O)c2ccccc2)[C@@H](O)[C@H](O)[C@H]1O [Mudanpioside C]
inhibition at 110 µM [%]: 41
//
compound: C/C=C(\C)C(=O)N[C@@H](c1ccccc1)[C@@H](O)C(=O)O[C@H]1C[C@@]2(O)[C@@H](OC(=O)c3ccccc3)[C@@H]3[C@]4(OC(C)=O)CO[C@@H]4C[C@H](O)[C@@]3(C)C(=O)[C@H](OC(C)=O)C(=C1C)C2(C)C [Cephalomannine]
inhibition at 110 µM [%]: 34
//
compound: CC1=CC[C@@H](C(C)(C)O)CC1 [α-Terpineol]
inhibition at 110 µM [%]: 17
//
compound: CC(=O)O[C@@H]1C[C@]23C4=CC[C@@]5(C)[C@H](C(=O)O)[C@@](C)([C@H](C)C(C)C)CC[C@]5(C)[C@H]4CC[C@H]2[C@@](C)(COC3O)[C@H]1O[C@@H]1O[C@H](CO)[C@@H](O)[C@H](O)[C@H]1O (stereo partly drawn) [Enfumafungin]
inhibition at 110 µM [%]: 60
//
compound: C[C@@H]1C(=O)O[C@H]2C[C@@]34[C@H]5C[C@@H](C(C)(C)C)[C@]36[C@@H](OC(=O)[C@@H]6O)O[C@@]4(C(=O)O5)[C@]21O [Ginkgolide A]
inhibition at 110 µM [%]: 8
//
compound: C[C@@H]1O[C@@H](OC[C@H]2O[C@@H](Oc3cc(O)c4c(c3)O[C@H](c3ccc(O)cc3)CC4=O)[C@H](O)[C@@H](O)[C@@H]2O)[C@H](O)[C@H](O)[C@H]1O [Narirutin]
inhibition at 110 µM [%]: 19
//
compound: CN1C(=O)/C(=C2/C(=O)Nc3ccccc32)c2ccccc21 [Meisoindigo]
inhibition at 110 µM [%]: 0
//
compound: COc1ccc2c(c1)CC=C(CO)c1cc3c(cc1-2)OCO3 [Tenuifolin]
inhibition at 110 µM [%]: 1
//
compound: CC(C)CN(C[C@@H](O)[C@H](Cc1ccccc1)NC(=O)O[C@H]1CCOC1)S(=O)(=O)c1ccc(N)cc1 [Amprenavir]
inhibition at 110 µM [%]: 34
//
compound: O=[N+]([O-])c1cn2c(n1)OC[C@@H](OCc1ccc(OC(F)(F)F)cc1)C2 [PA‐824]
inhibition at 110 µM [%]: 0
//
compound: COc1ccc([C@@H]2CC(=O)c3c(O)cc(O[C@@H]4O[C@H](CO)[C@@H](O)[C@H](O)[C@H]4O[C@@H]4O[C@@H](C)[C@H](O)[C@@H](O)[C@H]4O)cc3O2)cc1 [Poncirin]
inhibition at 110 µM [%]: 3
